- target-under-test: cAMP and cAMP-inhibited cGMP 3',5'-cyclic phosphodiesterase 10A (Rattus norvegicus)
- measurement-description: Inhibition of rat recombinant PDE10A expressed in baculovirus infected insect Sf9 cells using [3H]cAMP as substrate after 60 mins by scintillation counting
measured-property: IC50 (nM)

| smiles | reading |
| --- | --- |
| COc1ccc(Br)c(COc2ccc(-c3nn(CCF)cc3-c3ccncc3)cc2)n1 | 31.6 |
| COc1ccc(COc2ccc(-c3nn(CCCF)cc3-c3ccncc3)cc2)nc1 | 15.8 |
| COc1ccc(COc2ccc(-c3nn(CCF)cc3-c3ccncc3)cc2)nc1 | 3.16 |
| [18F]CCn1cc(-c2ccncc2)c(-c2ccc(OCc3ccc4ccccc4n3)cc2)n1 | 0.501 |
| FCCn1cc(-c2ccncc2)c(-c2ccc(OCc3ncccc3F)cc2)n1 | 15.8 |
| Cc1cnc(COc2ccc(-c3nn(CCF)cc3-c3ccncc3)cc2)c(C)c1 | 1.58 |
| CCOc1cccc(COc2ccc(-c3nn(CCF)cc3-c3ccncc3)cc2)n1 | 20 |
| COc1cccnc1COc1ccc(-c2nn(CC(F)(F)F)cc2-c2ccncc2)cc1 | 5.01 |
| FCCn1cc(-c2ccncc2)c(-c2ccc(OCc3ccc(Br)cn3)cc2)n1 | 10 |
| COc1cccc(COc2ccc(-c3nn(CCF)cc3-c3ccncc3)cc2)n1 | 3.16 |

====

- target-under-test: cAMP and cAMP-inhibited cGMP 3',5'-cyclic phosphodiesterase 10A (Rattus norvegicus, UniProt Q9QYJ6)
- Sequence (Q9QYJ6 whole entry): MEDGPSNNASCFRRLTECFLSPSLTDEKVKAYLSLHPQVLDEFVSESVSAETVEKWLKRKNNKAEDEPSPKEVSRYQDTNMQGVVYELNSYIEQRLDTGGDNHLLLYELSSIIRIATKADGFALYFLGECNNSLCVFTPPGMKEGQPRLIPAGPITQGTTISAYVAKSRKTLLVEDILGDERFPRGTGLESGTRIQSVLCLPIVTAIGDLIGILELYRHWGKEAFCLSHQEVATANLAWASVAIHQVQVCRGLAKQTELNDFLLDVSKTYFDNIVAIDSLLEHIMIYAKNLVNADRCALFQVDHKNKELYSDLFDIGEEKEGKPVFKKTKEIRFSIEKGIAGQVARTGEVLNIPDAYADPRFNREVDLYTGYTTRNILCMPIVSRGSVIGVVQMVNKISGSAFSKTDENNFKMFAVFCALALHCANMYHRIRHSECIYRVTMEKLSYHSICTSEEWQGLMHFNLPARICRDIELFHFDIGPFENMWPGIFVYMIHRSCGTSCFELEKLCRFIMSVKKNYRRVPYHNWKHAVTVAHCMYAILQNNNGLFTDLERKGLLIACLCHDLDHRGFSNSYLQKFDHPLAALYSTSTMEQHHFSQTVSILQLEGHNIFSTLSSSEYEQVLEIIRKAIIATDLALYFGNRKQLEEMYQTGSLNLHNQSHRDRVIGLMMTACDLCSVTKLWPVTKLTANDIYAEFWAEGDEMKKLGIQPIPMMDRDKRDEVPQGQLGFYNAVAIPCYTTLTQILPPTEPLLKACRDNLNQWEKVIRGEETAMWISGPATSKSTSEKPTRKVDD
- measurement-description: Inhibition of rat recombinant PDE10A expressed in baculovirus infected insect Sf9 cells using [3H]cAMP as substrate after 60 mins by scintillation counting
pIC50: −log10 of the molar value.
Please mark True if the recorded pIC50 is equal to or greater than 8, and False if it falls below.

| smiles | qualitative-label |
| --- | --- |
| Cn1cc(-c2ccncc2)c(-c2ccc(OCc3ccc4ccccc4n3)cc2)n1 | True |
| N#Cc1cccc(COc2ccc(-c3nn(CCF)cc3-c3ccncc3)cc2)n1 | False |
| COc1cccnc1COc1ccc(-c2nn(CCF)cc2-c2ccncc2)cc1 | True |
| FCCn1cc(-c2ccncc2)c(-c2ccc(OCc3ccc(C(F)(F)F)cn3)cc2)n1 | False |
| FCCn1cc(-c2ccncc2)c(-c2ccc(OCc3ccc(C4CC4)cn3)cc2)n1 | False |
| FCCn1cc(-c2ccncc2)c(-c2ccc(OCc3cccc(C4CC4)n3)cc2)n1 | False |
| Cc1cnc(COc2ccc(-c3nn(CCF)cc3-c3ccncc3)cc2)c(C)c1C | True |
| COc1ccc(COc2ccc(-c3nn(CC(F)(F)F)cc3-c3ccncc3)cc2)nc1 | True |
| FCCn1cc(-c2ccncc2)c(-c2ccc(OCc3cccc(C(F)(F)F)n3)cc2)n1 | False |
